Give measured Peptide signal (feature intensity) in the small intestine, 30 min for each item. Keep answers brief.
experiment: FBMN analysis of short peptides in small intestine contents and serum after oral DHG; details: small intestine contents, 30 min after oral DHG, C57 mice; FBMN feature intensity, peptides smaller than 690 Da
Square brackets hold non-standard residues; d marks the D form. Peptide text beside a SMILES is read from it. pGlu = O=C1CC[CH](C(=O)O)N1

Req: Let me know recorded Peptide signal (feature intensity) in the small intestine, 30 min for CC[C@H](C)[C@H](N)C(=O)N[C@@H](CC(C)C)C(=O)O [Ile-Leu] (H-Ile-Leu-OH) , thanks.
Resp: 3.18E+06

Req: Supply reported Peptide signal (feature intensity) in the small intestine, 30 min belonging to this compound: CC(C)C[C@H](NC(=O)[C@@H](N)CO)C(=O)N[C@@H](CCCCN)C(=O)O [Ser-Leu-Lys] (H-Ser-Leu-Lys-OH)
Resp: 8.94E+05

Req: Recall and state the measured Peptide signal (feature intensity) in the small intestine, 30 min for NC(Cc1ccc(O)cc1)C(=O)NC(Cc1ccc(O)cc1)C(=O)O (stereo not drawn) [Tyr-Tyr] (H-Tyr-Tyr-OH; configuration not given here) .
Resp: 2.40E+05

Req: Given the compound O=C1CCC(C(=O)NC(Cc2ccccc2)C(=O)O)N1 (stereo not shown) [PyroGlu-Phe] , write its reported Peptide signal (feature intensity) in the small intestine, 30 min.
Resp: 0.00E+00

Req: Could you please provide reported Peptide signal (feature intensity) in the small intestine, 30 min for CCC(C)C(N)C(=O)N1CCCC1C(=O)O (stereo not drawn) [Ile-Pro] (H-Ile-Pro-OH; configuration not given here) ? Thanks!
Resp: 1.26E+07

Req: Answer with reported Peptide signal (feature intensity) in the small intestine, 30 min of O=C1CCC(C(=O)N2CCCC2C(=O)O)N1 (stereo not shown) [PyroGlu-Pro] ([pGlu]-Pro-OH; configuration not given here)
Resp: 0.00E+00

Req: Output Peptide signal (feature intensity) in the small intestine, 30 min of CC(C)CC(N)C(=O)NC(Cc1ccccc1)C(=O)O (stereo not drawn) [Leu-Phe] (H-Leu-Phe-OH; configuration not given here)
Resp: 6.52E+05
